Molecular target: T1, hu-CD200R1-iso4-Ref ECD (human)
T1 chain: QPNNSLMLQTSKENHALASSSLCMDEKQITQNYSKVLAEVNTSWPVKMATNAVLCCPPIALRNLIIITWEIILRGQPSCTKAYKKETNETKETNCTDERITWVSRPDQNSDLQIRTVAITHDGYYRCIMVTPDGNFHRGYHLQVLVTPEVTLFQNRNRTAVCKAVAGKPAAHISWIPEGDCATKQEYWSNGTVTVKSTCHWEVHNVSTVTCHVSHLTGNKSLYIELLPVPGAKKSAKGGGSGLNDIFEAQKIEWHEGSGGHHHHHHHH
Test: blocking ELISA; biotin-hu-CD200R1 + antibody dilutions on coated hu-CD200-Fc
Here the recorded pIC50 is given for each entry.
Answer as the number alone; pIC50 is minus log10 of concentration in mol/L.

Examples with their reported pIC50 follow.
Binder | Reported value
h10F6.V3 (antibody, IgG1, V domains shown, IgG1 variant of h10F6) VH: EVQLQESGPGLVKPSETLSLTCTVSGFSLTNYRVSWVRQPPGKGLEWLGVMYAGGGTNYNSVFKSRLTISKDNSKNQVSLKLSSVTAADTAVYYCARERPLTGVMDNWGQGTLVTVSS VL: DIVLTQSPDSLAVSLGERATINCRASESVDYSGNSFMHWFQQKPGQPPKLLIYRASNLESGIPDRFSGSGSRTDFTLTISSLQAEDVAVYYCHQSNEDPPTFGGGTKVEIKR | 9.25
h10F6.V4 (antibody, IgG1, V domains shown, IgG1 variant of h10F6) VH: EVQLQESGPGLVKPSETLSLTCTVSGFSLTNYWVSWVRQPPGKGLEWLGTMWAGGGTNYNSVFKSRLTISKDNSKNQVSLKLSSVTAADTAVYYCARERPLTGPMDYWGQGTLVTVSS VL: DIVLTQSPDSLAVSLGERATINCRASESVDYSGNSFMHWFQQKPGQPPKLLIYRASNLESGIPDRFSGSGSRTDFTLTISSLQAEDVAVYYCHQSNWDPPTFGGGTKVEIKR | 7.96
h10F6.V1 (antibody, IgG1, V domains shown, differs by 3 residues in the heavy chain CDRs and 1 in the light chain CDRs; also called surrogate antibody) VH: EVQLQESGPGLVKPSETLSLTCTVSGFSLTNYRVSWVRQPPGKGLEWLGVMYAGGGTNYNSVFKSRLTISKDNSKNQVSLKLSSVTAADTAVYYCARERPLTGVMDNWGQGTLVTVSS VL: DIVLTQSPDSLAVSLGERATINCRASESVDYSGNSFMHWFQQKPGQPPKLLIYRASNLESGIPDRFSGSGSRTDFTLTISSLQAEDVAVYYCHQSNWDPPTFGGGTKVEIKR | 9.24

Consider the record given below.
// returns reported pIC50 for input h10F6.V2 (antibody, IgG1, V domains shown, IgG1 variant of h10F6) VH: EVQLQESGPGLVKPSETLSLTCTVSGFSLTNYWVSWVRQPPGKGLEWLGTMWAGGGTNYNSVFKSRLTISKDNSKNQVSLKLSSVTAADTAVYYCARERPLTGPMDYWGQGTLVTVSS VL: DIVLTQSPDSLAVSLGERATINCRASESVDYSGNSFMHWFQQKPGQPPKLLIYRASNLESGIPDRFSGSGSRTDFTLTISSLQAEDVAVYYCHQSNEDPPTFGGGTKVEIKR
8.32
